- Tested on: MCF7
- PROTOCOL NOTES: Antiproliferative activity against human MCF7 cells incubated for 48 hrs by MTT assay
- Format: functional, cell-based
- MEASUREMENT SETUP: MCF7, 48 h
pIC50: −log10 of the molar value.
MEASUREMENT LABEL: pIC50

{"columns": ["ENTRY SMILES", "pIC50"],
 "data": [
  ["Cc1cnc(Nc2ccc(S(N)(=O)=O)cc2)nc1Nc1nc2ccc(Cl)cc2s1", 5.07],
  ["Cc1cnc(Nc2ccc(S(C)(=O)=O)cc2)nc1Nc1nc2ccccc2s1", 5.18]
]}

* * *

- Test system: MDA-MB-231
- PROTOCOL NOTES: Antiproliferative activity against human MDA-MB-231 cells incubated for 48 hrs by MTT assay
- Format: functional, cell-based
- MEASUREMENT SETUP: MDA-MB-231, 48 h
MEASUREMENT LABEL: IC50 (µM)

{"columns": ["ENTRY SMILES", "IC50 (µM)"],
 "data": [
  ["NS(=O)(=O)c1ccc(Nc2nccc(Nc3nc4ccccc4s3)n2)cc1", 5]
]}

(1) COc1ccc2nc(Nc3ccnc(Nc4ccc(S(N)(=O)=O)cc4)n3)sc2c1
(2) NS(=O)(=O)c1ccc(Nc2ncc(F)c(Nc3nc4ccc(Cl)cc4s3)n2)cc1
(3) Cc1cnc(Nc2ccc(S(C)(=O)=O)cc2)nc1Nc1nc2ccccc2s1
(4) Cc1ccc2nc(Nc3nc(Nc4ccc(S(N)(=O)=O)cc4)ncc3C)sc2c1
Your job: order these 4 records by IC50, ascending. Output the labels ranked as instructed.
2, 1, 4, 3
